Every entry's value here was drawn from ChEMBL document CHEMBL1144434.

Biological target: Caspase-1 (Mus musculus)
Experiment: Binding affinity against mouse Caspase-1
Below, each entry is listed alongside its reported k3/ki.

| molSmiles | k3/ki |
| --- | --- |
| CC(C)[C@H](NC(=O)COc1cccc2ccccc12)C(=O)N[C@@H](CC(=O)O)C(=O)COc1nccc2ccccc12 | 360 1/m/s |
| CC(C)c1cc(OCC(=O)[C@H](CC(=O)O)NC(=O)[C@@H](NC(=O)COc2cccc3ccccc23)C(C)C)no1 | 3670 1/m/s |
| CC(C)[C@H](NC(=O)COc1cccc2ccccc12)C(=O)N[C@@H](CC(=O)O)C(=O)CSc1ncc[nH]1 | 173 1/m/s |
| CC(C)[C@H](NC(=O)COc1cccc2ccccc12)C(=O)N[C@@H](CC(=O)O)C(=O)COc1[nH]cnc2nncc1-2 | 273 1/m/s |
| Cc1nnc(SCC(=O)[C@H](CC(=O)O)NC(=O)[C@@H](NC(=O)COc2cccc3ccccc23)C(C)C)s1 | 5480 1/m/s |
| CC(C)[C@H](NC(=O)COc1cccc2ccccc12)C(=O)N[C@@H](CC(=O)O)C(=O)COc1nccc(C(F)(F)F)n1 | 0 1/m/s |
| CC(C)[C@H](NC(=O)COc1cccc2ccccc12)C(=O)N[C@@H](CC(=O)O)C(=O)COc1ccnc(C(F)(F)F)n1 | 24800 1/m/s |
| CC(C)[C@H](NC(=O)COc1cccc2ccccc12)C(=O)N[C@@H](CC(=O)O)C(=O)COc1cncc2ccccc12 | 0 1/m/s |
| CC(C)[C@H](NC(=O)COc1cccc2ccccc12)C(=O)N[C@@H](CC(=O)O)C(=O)CSc1nc(-c2ccccc2)c(-c2ccccc2)[nH]1 | 199 1/m/s |
| Cc1cc(C)nc(OCC(=O)[C@H](CC(=O)O)NC(=O)[C@@H](NC(=O)COc2cccc3ccccc23)C(C)C)n1 | 10 1/m/s |
| CC(C)[C@H](NC(=O)COc1cccc2ccccc12)C(=O)N[C@@H](CC(=O)O)C(=O)COc1nncc(Cl)c1Cl | 152 1/m/s |
| CC(C)[C@H](NC(=O)COc1cccc2ccccc12)C(=O)N[C@@H](CC(=O)O)C(=O)CSc1nc[nH]n1 | 115 1/m/s |
| CC(C)[C@H](NC(=O)COc1cccc2ccccc12)C(=O)N[C@@H](CC(=O)O)C(=O)CSC1=NCCS1 | 186 1/m/s |
| CC(C)[C@H](NC(=O)COc1cccc2ccccc12)C(=O)N[C@@H](CC(=O)O)C(=O)CSc1nc(-c2ccccc2)no1 | 1190 1/m/s |
| CC(C)[C@H](NC(=O)COc1cccc2ccccc12)C(=O)N[C@@H](CC(=O)O)C(=O)COc1ncnc2ccccc12 | 83 1/m/s |

====

Biological target: Caspase-1 (Mus musculus) (UniProt P29452)
Sequence (P29452 119-296 limits assumed): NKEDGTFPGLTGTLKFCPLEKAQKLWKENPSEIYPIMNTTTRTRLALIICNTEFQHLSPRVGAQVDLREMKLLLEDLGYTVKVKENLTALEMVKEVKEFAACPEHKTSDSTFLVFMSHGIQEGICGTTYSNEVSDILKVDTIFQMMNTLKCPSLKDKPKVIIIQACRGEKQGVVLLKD
Sequence (P29452 315-402 limits assumed): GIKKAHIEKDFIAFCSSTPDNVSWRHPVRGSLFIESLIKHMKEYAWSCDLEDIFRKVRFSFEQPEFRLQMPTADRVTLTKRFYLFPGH
Test: Binding affinity against mouse Caspase-1
Below, each entry is listed alongside its reported k3/ki.

| molSmiles | testedTarget | k3/ki |
| --- | --- | --- |
| CC(C)[C@H](NC(=O)COc1cccc2ccccc12)C(=O)N[C@@H](CC(=O)O)C(=O)COc1cc(C(F)(F)F)n(C)n1 | Caspase-1 (Mus musculus) (UniProt P29452) | 9400 1/m/s |
| CC(C)[C@H](NC(=O)COc1cccc2ccccc12)C(=O)N[C@@H](CC(=O)O)C(=O)COc1cccc2cccnc12 | Caspase-1 (Mus musculus) (UniProt P29452) | 1260 1/m/s |
| CC(C)[C@H](NC(=O)COc1cccc2ccccc12)C(=O)N[C@@H](CC(=O)O)C(=O)CSc1nnnn1-c1ccccc1 | Caspase-1 (Mus musculus) (UniProt P29452) | 400 1/m/s |
| Cc1cc(C)nc(SCC(=O)[C@H](CC(=O)O)NC(=O)[C@@H](NC(=O)COc2cccc3ccccc23)C(C)C)n1 | Caspase-1 (Mus musculus) (UniProt P29452) | 950 1/m/s |
| CC(C)[C@H](NC(=O)COc1cccc2ccccc12)C(=O)N[C@@H](CC(=O)O)C(=O)CSc1nc2ccccc2s1 | Caspase-1 (Mus musculus) (UniProt P29452) | 202 1/m/s |

====

Target: Caspase-8 (Homo sapiens)
Experiment: Binding affinity against Caspase-8
propertyLabel: k3/ki

| molSmiles | experimentalValue |
| --- | --- |
| CC(C)[C@H](NC(=O)COc1cccc2ccccc12)C(=O)N[C@@H](CC(=O)O)C(=O)COn1nnc2ccccc2c1=O | 18200 1/m/s |
| Cc1cc(OCC(=O)[C@H](CC(=O)O)NC(=O)[C@@H](NC(=O)COc2cccc3ccccc23)C(C)C)nc(C)n1 | 367 1/m/s |
| CC(C)[C@H](NC(=O)COc1cccc2ccccc12)C(=O)N[C@@H](CC(=O)O)C(=O)CSc1nc(-c2ccccc2)c(-c2ccccc2)[nH]1 | 0 1/m/s |
| CC(C)[C@H](NC(=O)COc1cccc2ccccc12)C(=O)N[C@@H](CC(=O)O)C(=O)CSc1nccn1C | 212 1/m/s |
| CC(C)[C@H](NC(=O)COc1cccc2ccccc12)C(=O)N[C@@H](CC(=O)O)C(=O)COc1cc2ccccc2cn1 | 8 1/m/s |
| CC(C)[C@H](NC(=O)COc1cccc2ccccc12)C(=O)N[C@@H](CC(=O)O)C(=O)COc1ccc2ccccc2n1 | 9 1/m/s |
| CCOC(=O)c1c(C)noc1OCC(=O)[C@H](CC(=O)O)NC(=O)[C@@H](NC(=O)COc1cccc2ccccc12)C(C)C | 1140 1/m/s |

====

Biological target: Caspase-1 (Mus musculus)
Test: Binding affinity against mouse Caspase-1
propertyLabel: k3/ki

| molSmiles | testedTarget | experimentalValue |
| --- | --- | --- |
| CCOC(=O)c1c(C)noc1OCC(=O)[C@H](CC(=O)O)NC(=O)[C@@H](NC(=O)COc1cccc2ccccc12)C(C)C | Caspase-1 (Mus musculus) | 1440 1/m/s |
| CC(C)[C@H](NC(=O)COc1cccc2ccccc12)C(=O)N[C@@H](CC(=O)O)C(=O)COc1cc2ccccc2cn1 | Caspase-1 (Mus musculus) | 693 1/m/s |
| CC(C)[C@H](NC(=O)COc1cccc2ccccc12)C(=O)N[C@@H](CC(=O)O)C(=O)COn1nnc2ccccc21 | Caspase-1 (Mus musculus) | 28300 1/m/s |
| CC(C)[C@H](NC(=O)COc1cccc2ccccc12)C(=O)N[C@@H](CC(=O)O)C(=O)CSc1nc(-c2ccccc2)cs1 | Caspase-1 (Mus musculus) | 217 1/m/s |
| CC(C)[C@H](NC(=O)COc1cccc2ccccc12)C(=O)N[C@@H](CC(=O)O)C(=O)CSc1nc2ccccc2[nH]1 | Caspase-1 (Mus musculus) | 168 1/m/s |
| CC(C)[C@H](NC(=O)COc1cccc2ccccc12)C(=O)N[C@@H](CC(=O)O)C(=O)CSc1nncn1C | Caspase-1 (Mus musculus) | 180 1/m/s |
| CC(C)[C@H](NC(=O)COc1cccc2ccccc12)C(=O)N[C@@H](CC(=O)O)C(=O)COc1ccncn1 | Caspase-1 (Mus musculus) | 0 1/m/s |
| CC(C)[C@H](NC(=O)COc1cccc2ccccc12)C(=O)N[C@@H](CC(=O)O)C(=O)COc1ccc2ccccc2n1 | Caspase-1 (Mus musculus) | 67 1/m/s |
| CC(C)[C@H](NC(=O)COc1cccc2ccccc12)C(=O)N[C@@H](CC(=O)O)C(=O)CSc1nc2ccccc2o1 | Caspase-1 (Mus musculus) | 0 1/m/s |
| CC(C)[C@H](NC(=O)COc1cccc2ccccc12)C(=O)N[C@@H](CC(=O)O)C(=O)CSc1nccc(C(F)(F)F)n1 | Caspase-1 (Mus musculus) | 0 1/m/s |
| CC(C)[C@H](NC(=O)COc1cccc2ccccc12)C(=O)N[C@@H](CC(=O)O)C(=O)CSc1ccccn1 | Caspase-1 (Mus musculus) | 0 1/m/s |
| CC(C)[C@H](NC(=O)COc1cccc2ccccc12)C(=O)N[C@@H](CC(=O)O)C(=O)COc1cc(C(F)(F)F)ncn1 | Caspase-1 (Mus musculus) | 479 1/m/s |

====

System: Jurkat
Experiment: Inhibitory concentration for cellular activity in jurkat assay
Assay type: functional, cell-based
Conditions: Homo sapiens
propertyLabel: IC50

| molSmiles | experimentalValue |
| --- | --- |
| CC(C)[C@H](NC(=O)COc1cccc2ccccc12)C(=O)N[C@@H](CC(=O)O)C(=O)CSC1=NCCS1 | > 200 µM |
| CC(C)[C@H](NC(=O)COc1cccc2ccccc12)C(=O)N[C@@H](CC(=O)O)C(=O)COc1nncc(Cl)c1Cl | > 200 µM |
| CC(C)[C@H](NC(=O)COc1cccc2ccccc12)C(=O)N[C@@H](CC(=O)O)C(=O)COc1cccc2cccnc12 | > 200 µM |

====

Target: Caspase-8 (Homo sapiens) (UniProt Q14790)
Sequence (Q14790 217-374 limits assumed): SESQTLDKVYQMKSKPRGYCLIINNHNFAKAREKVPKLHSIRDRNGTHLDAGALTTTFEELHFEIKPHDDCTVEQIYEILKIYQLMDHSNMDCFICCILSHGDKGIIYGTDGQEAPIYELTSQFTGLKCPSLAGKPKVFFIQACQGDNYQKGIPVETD
Sequence (Q14790 385-479 limits assumed): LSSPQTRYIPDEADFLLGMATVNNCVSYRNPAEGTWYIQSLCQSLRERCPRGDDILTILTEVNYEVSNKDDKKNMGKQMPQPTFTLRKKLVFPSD
Assay: Binding affinity against Caspase-8

| molSmiles | k3/ki |
| --- | --- |
| CC(C)[C@H](NC(=O)COc1cccc2ccccc12)C(=O)N[C@@H](CC(=O)O)C(=O)COc1ncnc2ccccc12 | 4 1/m/s |
| CC(C)[C@H](NC(=O)COc1cccc2ccccc12)C(=O)N[C@@H](CC(=O)O)C(=O)CSc1nnnn1C | 6510 1/m/s |
| CC(C)[C@H](NC(=O)COc1cccc2ccccc12)C(=O)N[C@@H](CC(=O)O)C(=O)CSc1nc2ccccc2o1 | 0 1/m/s |
| CC(C)[C@H](NC(=O)COc1cccc2ccccc12)C(=O)N[C@@H](CC(=O)O)C(=O)COc1nncc(Cl)c1Cl | 0 1/m/s |
| CC(C)[C@H](NC(=O)COc1cccc2ccccc12)C(=O)N[C@@H](CC(=O)O)C(=O)CSc1ccccn1 | 0 1/m/s |
| CC(C)[C@H](NC(=O)COc1cccc2ccccc12)C(=O)N[C@@H](CC(=O)O)C(=O)COc1cc(C(F)(F)F)ncn1 | 0 1/m/s |
| CC(C)[C@H](NC(=O)COc1cccc2ccccc12)C(=O)N[C@@H](CC(=O)O)C(=O)CSC1=NCCS1 | 231 1/m/s |
| CC(C)[C@H](NC(=O)COc1cccc2ccccc12)C(=O)N[C@@H](CC(=O)O)C(=O)CSc1nc(-c2ccccc2)no1 | 3060 1/m/s |
| Cc1cc(C)nc(SCC(=O)[C@H](CC(=O)O)NC(=O)[C@@H](NC(=O)COc2cccc3ccccc23)C(C)C)n1 | 120 1/m/s |
| CC(C)[C@H](NC(=O)COc1cccc2ccccc12)C(=O)N[C@@H](CC(=O)O)C(=O)COc1nccc2ccccc12 | 177 1/m/s |
| CC(C)[C@H](NC(=O)COc1cccc2ccccc12)C(=O)N[C@@H](CC(=O)O)C(=O)CSc1nc[nH]n1 | 0 1/m/s |
| CC(C)[C@H](NC(=O)COc1cccc2ccccc12)C(=O)N[C@@H](CC(=O)O)C(=O)CSc1nc(-c2ccccc2)cs1 | 0 1/m/s |
| CC(C)[C@H](NC(=O)COc1cccc2ccccc12)C(=O)N[C@@H](CC(=O)O)C(=O)COc1[nH]cnc2nncc1-2 | 107 1/m/s |
| CC(C)[C@H](NC(=O)COc1cccc2ccccc12)C(=O)N[C@@H](CC(=O)O)C(=O)COc1cc(C(F)(F)F)n(C)n1 | 295 1/m/s |
| CC(C)[C@H](NC(=O)COc1cccc2ccccc12)C(=O)N[C@@H](CC(=O)O)C(=O)CSc1nc2ccccc2s1 | 0 1/m/s |
| CC(C)[C@H](NC(=O)COc1cccc2ccccc12)C(=O)N[C@@H](CC(=O)O)C(=O)CSc1nccc(C(F)(F)F)n1 | 0 1/m/s |
| Cc1cc(C)nc(OCC(=O)[C@H](CC(=O)O)NC(=O)[C@@H](NC(=O)COc2cccc3ccccc23)C(C)C)n1 | 0 1/m/s |
| CC(C)[C@H](NC(=O)COc1cccc2ccccc12)C(=O)N[C@@H](CC(=O)O)C(=O)CSc1ncc[nH]1 | 0 1/m/s |
| CC(C)[C@H](NC(=O)COc1cccc2ccccc12)C(=O)N[C@@H](CC(=O)O)C(=O)COc1nc2ccccc2[nH]1 | 2 1/m/s |
